system: breast cancer cell lines (e.g. MDA-MB-231, SK-BR-3, MDA-MB-468, HCC1954); experiment: Cell based assay, cell viability (CellTiter-Glo), breast cancer cell lines; details: Homo sapiens; Breast cancer cell line MDA-MB-231; 72 hours; CellTiter-Glo; read-out: IC50, MDA-MB-231
pIC50: −log10 of the molar value.
outcome_measure: pIC50

// lookup pIC50 for CC(=O)c1c([S+]([O-])Cc2ccc(SC(F)(F)F)cc2)[nH]c2c(Br)ccc(Cl)c2c1=O (stereo not shown) [Compound 56]
5.84

// lookup pIC50 for CC(=O)c1c(SCc2cccc(I)c2)[nH]c2c(Br)ccc(Cl)c2c1=O [Compound 47]
< 5.70

// lookup pIC50 for CC(=O)c1c([S+]([O-])Cc2cc(F)cc(F)c2)[nH]c2c(Br)ccc(Cl)c2c1=O (stereo not shown) [Compound 46]
< 5.70

// lookup pIC50 for CC(=O)c1c([S+]([O-])Cc2ccc([S+]([O-])C(F)(F)F)cc2)[nH]c2c(Br)ccc(Cl)c2c1=O (stereo not shown) [Compound 64]
< 5.70

// lookup pIC50 for CC(=O)c1c([S+]([O-])Cc2ccc(C(F)(F)F)cc2)[nH]c2c(Br)ccc(Cl)c2c1=O (stereo not shown) [Compound 70]
< 5.70

// lookup pIC50 for CC(=O)c1c([S+]([O-])Cc2ccc([N+](=O)[O-])cc2)[nH]c2c(Br)ccc(Cl)c2c1=O (stereo not shown) [Compound 33]
< 5.70

// lookup pIC50 for CC(=O)c1c(SCc2cc(F)cc(F)c2)[nH]c2c(Br)ccc(Cl)c2c1=O [Compound 45]
< 5.70

// lookup pIC50 for CC(=O)c1c(S(C)(=O)=O)n(S(=O)(=O)c2ccc(C(C)(C)C)cc2)c2c(Br)ccc(Cl)c2c1=O [Compound 41]
< 5.70

// lookup pIC50 for CC(=O)c1c([S+]([O-])C(C)c2ccccc2)[nH]c2c(Br)ccc(Cl)c2c1=O (stereo not shown) [Compound 26]
< 5.70

// lookup pIC50 for CC(=O)c1c([S+]([O-])Cc2ccccc2C#N)[nH]c2c(Br)ccc(Cl)c2c1=O (stereo not shown) [Compound 58]
< 5.70

// lookup pIC50 for CC(=O)c1c([S+]([O-])Cc2ccc(C(F)(F)F)o2)[nH]c2c(Br)ccc(Cl)c2c1=O (stereo not shown) [Compound 72]
5.86

// lookup pIC50 for COc1ccccc1Sc1[nH]c2c(Br)ccc(Cl)c2c(=O)c1C(C)=O [Compound 14]
< 5.70

// lookup pIC50 for CC(=O)c1c([S+]([O-])c2ccccc2)[nH]c2c(Br)ccc(Cl)c2c1=O (stereo not shown) [Compound 13]
< 5.70

// lookup pIC50 for CSc1c(C(C)=O)c(=O)c2c(Cl)ccc(Br)c2n1C [Compound 5]
< 5.70

// lookup pIC50 for CSc1c(C(C)=O)c(=O)c2cc(F)ccc2n1C [Compound 7]
< 5.70

// lookup pIC50 for CC(=O)c1c(SCc2ccccc2)nc2c(Br)ccc(Cl)c2c1O [Compound 52]
< 5.70

// lookup pIC50 for CC(=O)c1c([S+]([O-])Cc2ccc(S(F)(F)(F)(F)F)cc2)[nH]c2c(F)ccc(F)c2c1=O (stereo not shown) [Compound 80]
< 5.70

// lookup pIC50 for COCSc1[nH]c2c(Br)ccc(Cl)c2c(=O)c1C(C)=O [Compound 61]
< 5.70

// lookup pIC50 for CC(=O)c1c([S+]([O-])Cc2ccc(OC(F)(F)F)cc2)[nH]c2c(Br)ccc(Cl)c2c1=O (stereo not shown) [Compound 71]
< 5.70

// lookup pIC50 for CC(=O)c1c([S+]([O-])Cc2ccc(C(C)(C)C)cc2)[nH]c2c(Br)ccc(Cl)c2c1=O (stereo not shown) [Compound 60]
< 5.70

// lookup pIC50 for CC(=O)c1c(S)[nH]c2c(Br)ccc(Cl)c2c1=O [Compound 62]
< 5.70

// lookup pIC50 for CC(=O)c1c([S+]([O-])Cc2ccc(S(F)(F)(F)(F)F)cc2)[nH]c2c(Br)ccc(Cl)c2c1=O (stereo not shown) [Compound 68]
5.91

// lookup pIC50 for CC(=O)c1c([S+]([O-])Cc2cccc(C#N)c2)[nH]c2c(Br)ccc(Cl)c2c1=O (stereo not shown) [Compound 28]
5.85

// lookup pIC50 for CC(=O)c1c([S+]([O-])Cc2ccc(Cl)cc2)[nH]c2c(Br)ccc(Cl)c2c1=O (stereo not shown) [Compound 11]
< 5.70

// lookup pIC50 for CC(=O)c1c([S+]([O-])Cc2ccc(C#N)cc2)[nH]c2c(Br)ccc(Cl)c2c1=O (stereo not shown) [Compound 73]
< 5.70

// lookup pIC50 for CC(=O)c1c(SCc2ccc(Cl)cc2)[nH]c2c(Br)ccc(Cl)c2c1=O [Compound 10]
< 5.70

// lookup pIC50 for CC(=O)c1c([S+]([O-])Cc2ccc(C(=O)c3ccccc3)cc2)[nH]c2c(Br)ccc(Cl)c2c1=O (stereo not shown) [Compound 63]
< 5.70

// lookup pIC50 for CC(=O)c1c(S(C)(=O)=O)n(C(=O)c2ccc(Br)cc2)c2c(Br)ccc(Cl)c2c1=O [Compound 21]
< 5.70
